These measurements were taken from patent EP4324461A1.

- Test system: neuroblastoma SH-SY5Y
- test-name: Safety, MTT test in SH-SY5Y
- Assay type: cell-based
- condition-parameters: 100 µM; 48 hours
- From the text: In order to test the safety of the compounds, both normal human cells were used: keratinocytes (HaCaT), fibroblasts (BJ), primary melanocytes that occur in the skin, as well as human cancer cells: the hepatocarcinoma line HepG2 and the neuroblastoma line SH-SY5Y, which are considered a model for the assessment of hepatocytotoxicity and neurocytotoxicity. […] The absorbance at 570 nm, which corresponds to the absorption maximum for the product, is directly proportional to cell viability. […]
The reader will find reported Neuroblastoma SH-SYSY MTT values listed item by item below.

In the examples that follow, each entry is paired with its recorded Neuroblastoma SH-SYSY MTT.
The recorded Neuroblastoma SH-SYSY MTT for entry `O=C(/C=C/c1ccc(Cl)cc1)NCCCO` equals 99.79±5.34 % of solvent control

The recorded Neuroblastoma SH-SYSY MTT for entry `O=C(/C=C/c1ccc(Cl)cc1)NCCO` equals 100.48±3.67 % of solvent control

The recorded Neuroblastoma SH-SYSY MTT for entry `Cc1ccc(/C=C/C(=O)NCCCCCO)cc1` equals 100.68±4.63 % of solvent control

---
The recorded Neuroblastoma SH-SYSY MTT for entry `O=C(/C=C/c1ccccc1)NCCCCCO` equals 101.50±3.33 % of solvent control

The recorded Neuroblastoma SH-SYSY MTT for entry `O=C(/C=C/c1ccc(Cl)cc1)NCCCCCO` equals 100.14±3.22 % of solvent control
